Reported pIC50 values are given for each entry in this list.
# TEST SYSTEM: RIPK1 (Homo sapiens)
# Sequence (Q13546 1-671): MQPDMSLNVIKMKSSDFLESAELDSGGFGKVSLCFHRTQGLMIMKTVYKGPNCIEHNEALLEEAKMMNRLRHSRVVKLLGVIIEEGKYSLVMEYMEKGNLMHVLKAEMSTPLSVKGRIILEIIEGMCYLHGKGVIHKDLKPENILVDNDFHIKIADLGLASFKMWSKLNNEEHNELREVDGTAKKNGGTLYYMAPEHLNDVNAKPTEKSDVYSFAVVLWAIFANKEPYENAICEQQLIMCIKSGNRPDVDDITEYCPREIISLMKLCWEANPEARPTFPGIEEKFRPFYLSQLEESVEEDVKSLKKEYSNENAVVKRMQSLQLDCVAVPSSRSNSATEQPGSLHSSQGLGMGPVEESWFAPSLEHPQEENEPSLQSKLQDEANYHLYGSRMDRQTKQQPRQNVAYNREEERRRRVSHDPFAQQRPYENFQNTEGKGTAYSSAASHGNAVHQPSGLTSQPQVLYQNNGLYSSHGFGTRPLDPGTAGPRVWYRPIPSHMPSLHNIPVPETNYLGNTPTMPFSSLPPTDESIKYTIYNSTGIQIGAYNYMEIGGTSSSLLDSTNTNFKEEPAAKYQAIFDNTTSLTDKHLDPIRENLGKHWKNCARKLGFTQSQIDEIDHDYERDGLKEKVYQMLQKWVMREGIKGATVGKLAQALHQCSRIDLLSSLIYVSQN
# TEST PROTOCOL: RIPK1 ADP-Glo biochemical kinase assay
# CONDITIONS: 30 min at 30° C.
For clarity, pIC50 is expressed as the negative log10 of concentration in mol/L.

Examples with their reported pIC50 follow.
1) CN1C(=O)[C@@H](NC(=O)n2cc(Cc3ccc(F)cc3)cn2)CCc2ccc(C#CC3(O)COC3)cc21 = 7.63
2) [2H]C([2H])([2H])N1C(=O)C(NC(=O)c2n[nH]c(Cc3ccccc3)n2)CCc2ccc(N3CC4(CCOCC4)C3)cc21 (racemic) = 6.97

Given the molecule O=C(NC1CCc2ccc(CN3CCN(c4ccncc4)CC3)cc2NC1=O)c1n[nH]c(Cc2ccccc2)n1 (racemic) [Compound I-6] , what is its reported pIC50?
6.48

* * *

Consider the following compounds and their measured IC50 readings.
# TEST SYSTEM: murine RIP1 (Mus musculus)
# Construct: U937 and L929 cells were obtained from the American Type Culture Collection
# Sequence (Q60855 whole entry): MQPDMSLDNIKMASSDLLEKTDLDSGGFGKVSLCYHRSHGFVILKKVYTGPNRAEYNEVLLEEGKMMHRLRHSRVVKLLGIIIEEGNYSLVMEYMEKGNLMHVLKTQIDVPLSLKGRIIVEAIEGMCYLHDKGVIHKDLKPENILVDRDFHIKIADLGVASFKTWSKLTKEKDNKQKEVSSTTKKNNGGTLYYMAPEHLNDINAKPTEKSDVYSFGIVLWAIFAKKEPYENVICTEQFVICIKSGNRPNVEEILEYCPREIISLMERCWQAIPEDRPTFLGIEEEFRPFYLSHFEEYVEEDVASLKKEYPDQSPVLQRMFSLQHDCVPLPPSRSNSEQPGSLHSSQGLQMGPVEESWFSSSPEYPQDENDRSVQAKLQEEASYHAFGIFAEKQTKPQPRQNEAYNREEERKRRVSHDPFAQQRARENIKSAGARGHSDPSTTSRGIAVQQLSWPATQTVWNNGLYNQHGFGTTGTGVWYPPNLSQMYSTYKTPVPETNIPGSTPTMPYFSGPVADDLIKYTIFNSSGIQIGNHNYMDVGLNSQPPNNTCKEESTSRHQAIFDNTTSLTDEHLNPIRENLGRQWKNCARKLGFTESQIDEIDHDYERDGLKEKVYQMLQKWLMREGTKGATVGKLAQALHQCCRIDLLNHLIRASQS
# TEST PROTOCOL: L929 cell necroptosis assay (TNFa + zVAD, CellTiter-Glo)
State just the number; it will be interpreted in µM.

1) CC(C)(O)C#Cc1ccc2c(c1)NC(=O)[C@@H](NC(=O)c1cc(Oc3ccc(F)cc3)ccn1)CC2 = 1.79
2) [2H]C([2H])([2H])N1C(=O)[C@@H](NC(=O)n2cc(Cc3ccc(F)cc3)cn2)CCc2ccc(C#CC(C)(C)O)cc21 = 0.0045
3) CN1C(=O)[C@@H](NC(=O)c2ccn(Cc3ccccc3)n2)CCc2ccc(N3CC4(CCOCC4)C3)cc21 = 0.182

Which IC50 reading was recorded for the compound `CN1C(=O)[C@@H](NC(=O)c2n[nH]c(Cc3ccccc3)n2)CCc2ccc(N3CC4(CCOCC4)C3)cc21` ?
0.229

// returns reported IC50 for input CN1C(=O)C(NC(=O)c2n[nH]c(Cc3ccccc3)n2)CCc2ccc(N3CC4(CCCCC4)C3)cc21 (racemic)
0.0432

Report IC50 for [2H]C([2H])([2H])N1C(=O)C(NC(=O)c2n[nH]c(Cc3ccccc3)n2)CCc2ccc(N3CC4(CCOCC4)C3)cc21 (racemic) please.
0.257

* * *

# TEST SYSTEM: murine RIP1 (Mus musculus)
# Construct: U937 and L929 cells were obtained from the American Type Culture Collection
# TEST PROTOCOL: L929 cell necroptosis assay (TNFa + zVAD, CellTiter-Glo)
The compounds listed here are annotated with their IC50.
Please answer using a numeric value trailed by its unit.

The following compounds have reported results that may help.
1) CN1C(=O)C(NC(=O)c2n[nH]c(Cc3ccccc3)n2)CCc2ccc(C#Cc3ccccn3)cc21 (racemic) = 8.5 nM
2) [2H]C([2H])([2H])N1C(=O)C(NC(=O)c2cc(Oc3ccccc3)ccn2)CCc2ccc(N3CC4(CCOCC4)C3)cc21 (racemic) = 1420 nM

--- query ---
Find the recorded IC50 belonging to `CN1C(=O)[C@@H](NC(=O)n2cc(Cc3ccc(F)cc3)cn2)CCc2ccc(C#CC3(O)COC3)cc21` and report it.
2.4 nM

* * *

# TEST SYSTEM: murine RIP1 (Mus musculus)
# Construct: U937 and L929 cells were obtained from the American Type Culture Collection
# TEST PROTOCOL: L929 cell necroptosis assay (TNFa + zVAD, CellTiter-Glo)
pIC50: −log10 of the molar value.
Label false if pIC50 falls below 7; label true in every other case.

1. CN1C(=O)C(NC(=O)c2cc(Oc3ccccc3)ccn2)CCc2ccc(CN3CCN(c4ccncc4)CC3)cc21 (racemic) = false
2. CN1C(=O)C(NC(=O)n2cc(Cc3ccccc3)cn2)CCc2ccc(N3CC4(CCOCC4)C3)cc21 (racemic) = false
3. [2H]C([2H])([2H])N1C(=O)C(NC(=O)c2n[nH]c(Cc3ccccc3)n2)CCc2ccc(C#CC(C)(C)O)cc21 (racemic) = true
4. CN1CCN(C(C)(C)C#Cc2ccc3c(c2)N(C)C(=O)[C@@H](NC(=O)c2cc(Oc4ccccc4)ccn2)CC3)CC1 = false

We next turn to a different molecule, shown below.
I'd appreciate it if you could say whether [2H]C([2H])([2H])N1C(=O)C(NC(=O)c2cc(Oc3ccccc3)ccn2)CCc2ccc(C#CC(C)(C)O)cc21 (racemic) has pIC50 at least equal to 7.
true

* * *

# TEST SYSTEM: human RIP1 (Homo sapiens)
# Construct: U937 and L929 cells were obtained from the American Type Culture Collection
# TEST PROTOCOL: U937 cell necroptosis assay (TNFa + zVAD, CellTiter-Glo)
# CONDITIONS: U937 Zvad TNF CTG Recovery, U937 cells, TNFa 2 ng/mL + zVAD-fmk, 18 hours
Collected IC50 values appear next to each entry.
Respond numerically; units are nM and should not be typed.

Completed entries (count: 8):
1) CN1C(=O)[C@@H](NC(=O)c2n[nH]c(Cc3ccccc3)n2)CCc2ccc(N3CC4(CCOCC4)C3)cc21 [Compound I-17] = 3.9
2) CN1C(=O)[C@@H](NC(=O)c2ccn(Cc3ccccc3)n2)CCc2ccc(N3CC4(CCOCC4)C3)cc21 [Compound I-32] = 2.7
3) O=C(NC1CCc2ccc(CN3CCN(c4ccncc4)CC3)cc2NC1=O)c1n[nH]c(Cc2ccccc2)n1 (racemic) [Compound I-6] = 1460
4) CN1C(=O)[C@@H](NC(=O)n2cc(Cc3ccc(F)cc3)cn2)CCc2ccc(C#CC3(O)CCOCC3)cc21 [Compound I-34] = 0.4
5) CN1C(=O)[C@@H](NC(=O)c2n[nH]c(Cc3ccccc3)n2)CCc2ccc(C#CC(C)(C)C)cc21 [Compound I-21] = 13.4
6) CN1C(=O)C(NC(=O)n2cc(Cc3ccccc3)cn2)CCc2ccc(N3CC4(CCOCC4)C3)cc21 (racemic) [Compound I-23] = 1.7
7) CN1C(=O)[C@@H](NC(=O)c2n[nH]c(Cc3ccccc3)n2)CCc2ccc(C#CC(C)(C)O)cc21 [Compound I-10] = 1.7
8) CN1CCN(C(C)(C)C#Cc2ccc3c(c2)N(C)C(=O)[C@@H](NC(=O)c2cc(Oc4ccccc4)ccn2)CC3)CC1 [Compound I-37] = 21

Switching to the query record.
Query: IC50; subject: CN1C(=O)C(NC(=O)c2cc(Oc3ccccc3)ccn2)CCc2ccc(C#CC(C)(C)O)cc21 (racemic) [Compound I-24]
1.9

* * *

This section presents molecules with their documented IC50 values.
# TEST SYSTEM: human RIP1 (Homo sapiens)
# Construct: U937 and L929 cells were obtained from the American Type Culture Collection
# TEST PROTOCOL: U937 cell necroptosis assay (TNFa + zVAD, CellTiter-Glo)
# CONDITIONS: U937 Zvad TNF CTG Recovery, U937 cells, TNFa 2 ng/mL + zVAD-fmk, 18 hours
Unit nM implied. Number only.

1) [2H]C([2H])([2H])N1C(=O)[C@@H](NC(=O)n2cc(Cc3ccc(F)cc3)cn2)CCc2ccc(C#CC(C)(C)O)cc21 = 0.5

Which IC50 value belongs to CN1C(=O)C(NC(=O)c2n[nH]c(Cc3ccccc3)n2)CCc2ccc(C#CC3(O)COC3)cc21 (racemic) ?
8.4

Field request: IC50 | item: CN1C(=O)C(NC(=O)c2ncn(Cc3c(Cl)cccc3Cl)n2)CCc2ccc(CN3CCN(c4ccncc4)CC3)cc21 (racemic)
5.8

For the molecule shown here, `CN1C(=O)[C@@H](NC(=O)c2cc(Oc3ccccc3)ccn2)CCc2ccc(-c3ccc(C#CC(C)(C)O)nc3)cc21` , give the reported IC50.
2

I am curious: what IC50 value has been reported for CN1C(=O)C(NC(=O)c2n[nH]c(Cc3ccccc3)n2)CCc2ccc(N3CCC4(CCOCC4)CC3)cc21 (racemic) ?
2.1
